# Assayed system: cellular cGAS activity in dsDNA-stimulated human whole blood (Homo sapiens (Human), UniProt Q8N884)
# Sequence (Q8N884 whole entry): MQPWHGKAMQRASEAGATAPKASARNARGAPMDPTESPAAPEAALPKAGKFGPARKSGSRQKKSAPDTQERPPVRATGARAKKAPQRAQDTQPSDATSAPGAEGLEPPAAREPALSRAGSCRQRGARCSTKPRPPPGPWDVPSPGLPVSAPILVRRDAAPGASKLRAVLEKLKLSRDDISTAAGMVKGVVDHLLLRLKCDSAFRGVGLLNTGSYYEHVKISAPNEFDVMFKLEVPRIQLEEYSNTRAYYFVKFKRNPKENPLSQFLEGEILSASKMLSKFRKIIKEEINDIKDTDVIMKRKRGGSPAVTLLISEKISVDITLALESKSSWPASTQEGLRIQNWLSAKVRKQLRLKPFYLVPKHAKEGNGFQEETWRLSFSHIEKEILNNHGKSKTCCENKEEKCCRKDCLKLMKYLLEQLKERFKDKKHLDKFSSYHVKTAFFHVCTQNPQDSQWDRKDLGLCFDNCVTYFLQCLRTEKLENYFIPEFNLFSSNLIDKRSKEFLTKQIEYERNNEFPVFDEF
# Assay remarks: Human whole blood assay (hWB IC50): IFNα2a production after dsDNA transfection;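 also: IFNα-2a in plasma measured by MSD electrochemiluminescence immunoassay after 22 h at 37 °C, 8-point dilution series from 10 µM top concentration, DMSO wells as controls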
# Type: cell-based
# Test settings: Table 1; dsDNA-stimulated human whole blood
Checkbox rule: IC50 lower than 100 nM = Fulfilled; IC50 not lower than 100 nM = Not fulfilled.

Compound	Class assignment
C[C@H]1CN2CC[C@]1(F)c1cc(Cl)cnc1O[C@H]1C[C@@H](C(=O)O)N(C1)c1nc(nc3c1oc1ccccc13)C(F)(F)COCCCC2=O	Fulfilled
C[C@H]1CN2CC[C@]1(F)c1cc(Br)cnc1O[C@H]1C[C@@H](C(=O)O)N(C1)c1nc(nc3c1oc1ccccc13)CCOCCCC2=O	Fulfilled
C#Cc1cnc2c(c1)[C@@]1(F)CCN(C[C@@H]1C)C(=O)CCCOCCc1nc(c3oc4ccccc4c3n1)N1C[C@H](C[C@H]1C(=O)O)O2	Fulfilled
C[C@H]1CCCOCc2nc(c3oc4ccccc4c3n2)N2C[C@H](C[C@H]2C(=O)O)Oc2ncc(Cl)cc2[C@@]2(F)CCN(C[C@@H]2C)C1=O (single isomer, unassigned)	Not fulfilled
C[C@H]1CN2CC[C@]1(F)c1cc(Cl)cnc1O[C@H]1C[C@@H](C(=O)O)N(C1)c1nc(nc3c1oc1ccccc13)COCCOCC2=O	Not fulfilled
C[C@H]1CN2CC[C@]1(F)c1cc(Cl)cnc1O[C@H]1C[C@@H](C(=O)O)N(C1)c1nc(nc3c1oc1ccccc13)CCCOCCC2=O	Not fulfilled
C[C@H]1CN2CC[C@]1(F)c1cc(Cl)cnc1O[C@H]1C[C@@H](C(=O)O)N(C1)c1nc(nc3c1oc1ccccc13)COC(=O)CCC2=O	Fulfilled
C[C@H]1CN2CC[C@]1(F)c1cc(Br)cnc1O[C@H]1C[C@@H](C(=O)O)N(C1)c1nc(nc3c1oc1ccccc13)CCCCOCC2=O	Fulfilled
C[C@H]1CN2CC[C@]1(F)c1cc(Cl)cnc1O[C@H]1C[C@@H](C(=O)O)N(C1)c1nc(nc3c1oc1ccccc13)COCCCOC2=O	Not fulfilled
C[C@H]1CN2CC[C@]1(F)c1cc(Cl)cnc1O[C@H]1C[C@@H](C(=O)O)N(C1)c1nc(nc3c1oc1cc(F)ccc13)C(F)(F)CCCOCC2=O	Fulfilled
C[C@H]1CN2CC[C@]1(F)c1cc(Cl)cnc1O[C@H]1C[C@@H](C(=O)O)N(C1)c1nc(nc3c1oc1ccccc13)C(F)(F)CCCCCC2=O	Not fulfilled
C[C@H]1CN2CC[C@]1(F)c1cc(Cl)cnc1O[C@H]1C[C@@H](C(=O)O)N(C1)c1nc(nc3c1oc1ccccc13)CCOCCC2=O	Fulfilled

====

Let's look at some molecules and their measured IC50.
# Assayed system: cellular cGAS activity in baculovirus-stimulated THP1-Dual cells (Homo sapiens (Human))
# Sequence (Q8N884 whole entry): as above
# Assay remarks: Human cGAS cell assay (THP1(vir) IC50): IFN induction in virus-stimulated THP1-Dual cells, IRF Lucia luciferase reporter;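 also: Eight-point dilution series starting at 10 µM, 1% DMSO, 18 h at 37 °C, luminescence read-out, virus-free wells as 0% and DMSO-treated virus-stimulated wells as 100%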
# Type: cell-based
# Test settings: Table 1; virus-stimulated THP1 cells; read-out: THP(vir) IC50
Measured metric: IC50 (nM)

> print(dat)
                                chem.smiles  result.number
1  C[C@H]1CN2CC[C@]1(F)c1cc(Cl)cnc1O[C@H]1C[C@@H](C(=O)O)N(C1)c1nc(nc3c1oc1ccccc13)CCOCCOC2=O             36
2  C[C@H]1CN2CC[C@]1(F)c1cc(Cl)cnc1O[C@H]1C[C@@H](C(=O)O)N(C1)c1nc(nc3c1oc1ccccc13)COCCOCC2=O             36
3  C[C@H]1CN2CC[C@]1(F)c1cc(Cl)cnc1O[C@H]1C[C@@H](C(=O)O)N(C1)c1nc(nc3c1oc1ccccc13)CCCOCCC2=O             69
